Provenance of the data: patent US10517889B2

Tested on: human SMAD7 mRNA
Assay text: Antisense inhibition of human SMAD7 mRNA expression in Hep3B cells by 3-10-3 cEt gapmers, 10,000 nM, electroporation (Example 2)
Format: cell-based
Details: Hep3B cells, electroporation with 10,000 nM antisense oligonucleotide, approximately 24 hours, RTS5062, percent inhibition of SMAD7 mRNA relative to untreated control cells
Strand notation (5' to 3'): a small letter for the sugar, then the base; units joined by * are phosphorothioate-linked, units joined directly phosphodiester-linked; [ ] holds rarer units or linkages, { } end groups; capitals alone tell only the bases. k = constrained ethyl (cEt); [5mC] = 5-methylcytosine; d = 2'-deoxy (DNA)
Entries are grouped by % Inhibition into these classes: low group (below 20%), middle group (20% to below 50%), high group (50% or more)

> print(dat)
                                  substance  target.or.system  discrete.label
1  799786 (kA*k[5mC]*kA*dG*dA*dA*dG*d[5mC]*dT*dG*d[5mC]*d[5mC]*d[5mC]*k[5mC]*kT*kG; antisense) [compound 799786]  human SMAD7 mRNA       low group
2  799724 (antisense kA*kA*k[5mC]*dT*dT*dG*dG*dG*d[5mC]*dA*dA*dG*dG*kA*k[5mC]*kA) [compound 799724]  human SMAD7 mRNA    middle group

stdin: Using the reported % Inhibition, which band applies to 799572 (kA*k[5mC]*k[5mC]*dA*dT*d[5mC]*dT*dA*dA*d[5mC]*dA*dA*d[5mC]*kA*kT*k[5mC]; antisense) [compound 799572] ?
stdout: high group

stdin: Using the reported % Inhibition, which band applies to 799790 (kG*kA*kG*dA*d[5mC]*d[5mC]*dT*dA*d[5mC]*d[5mC]*dT*d[5mC]*dT*kG*kT*kT; antisense) [compound 799790] ?
stdout: middle group

stdin: Using the reported % Inhibition, which band applies to 799527 (kG*kT*k[5mC]*dA*dA*dA*dG*dG*dA*dG*dG*dT*dT*kT*kG*kG; antisense) [compound 799527] ?
stdout: low group

stdin: Using the reported % Inhibition, which band applies to 799296 (antisense kG*k[5mC]*kT*dG*dA*d[5mC]*dT*d[5mC]*dG*d[5mC]*dG*dG*d[5mC]*k[5mC]*kT*kT) [compound 799296] ?
stdout: middle group

stdin: Using the reported % Inhibition, which band applies to 799844 (antisense kA*kG*kA*dG*dG*dA*dG*dG*dA*dG*dG*d[5mC]*dA*kA*kA*kT) [compound 799844] ?
stdout: low group

stdin: Using the reported % Inhibition, which band applies to 799647 (antisense kA*k[5mC]*kA*dG*dA*dA*dA*d[5mC]*dT*d[5mC]*d[5mC]*dA*dG*kA*kT*kG) [compound 799647] ?
stdout: low group

stdin: Using the reported % Inhibition, which band applies to 799297 (antisense kA*kA*kA*dG*dG*d[5mC]*dT*dG*dA*d[5mC]*dT*d[5mC]*dG*k[5mC]*kG*kG) [compound 799297] ?
stdout: high group

stdin: Using the reported % Inhibition, which band applies to 799710 (antisense kG*kT*k[5mC]*dA*dA*dA*d[5mC]*dT*dT*dG*dT*dG*dG*kT*kA*kA) [compound 799710] ?
stdout: middle group

stdin: Using the reported % Inhibition, which band applies to 799848 (kA*kG*k[5mC]*d[5mC]*dG*dA*dT*d[5mC]*dA*d[5mC]*dA*dA*dA*kA*kG*kG; antisense) [compound 799848] ?
stdout: high group

stdin: Using the reported % Inhibition, which band applies to 799524 (antisense kA*kT*k[5mC]*dA*dA*dG*dG*dG*d[5mC]*dA*dG*dA*dA*kG*kG*k[5mC]) [compound 799524] ?
stdout: middle group

stdin: Using the reported % Inhibition, which band applies to 799708 (antisense k[5mC]*kA*kA*dA*d[5mC]*dT*dT*dG*dT*dG*dG*dT*dA*kA*kA*kA) [compound 799708] ?
stdout: high group

stdin: Using the reported % Inhibition, which band applies to 799588 (kA*kA*kA*dA*dA*dG*d[5mC]*d[5mC]*d[5mC]*dA*d[5mC]*d[5mC]*d[5mC]*kA*kT*k[5mC]; antisense) [compound 799588] ?
stdout: middle group

stdin: Using the reported % Inhibition, which band applies to 799626 (kA*kG*k[5mC]*dT*dT*dG*d[5mC]*dA*d[5mC]*d[5mC]*d[5mC]*dA*dG*k[5mC]*kA*kA; antisense) [compound 799626] ?
stdout: middle group

stdin: Using the reported % Inhibition, which band applies to 799727 (antisense kT*kG*kA*d[5mC]*dA*dG*dT*dA*dG*dG*d[5mC]*dA*dG*kG*k[5mC]*kA) [compound 799727] ?
stdout: middle group

stdin: Using the reported % Inhibition, which band applies to 799611 (kT*kG*kT*dG*dA*dA*dA*dG*dA*dG*dG*d[5mC]*dT*k[5mC]*kA*kG; antisense) [compound 799611] ?
stdout: middle group

stdin: Using the reported % Inhibition, which band applies to 799625 (kA*kA*kT*dG*dA*dA*dA*dG*dT*dA*d[5mC]*dA*dA*kT*k[5mC]*kT; antisense) [compound 799625] ?
stdout: middle group

stdin: Using the reported % Inhibition, which band applies to 799826 (antisense kG*kA*kT*d[5mC]*dA*dT*dT*d[5mC]*d[5mC]*d[5mC]*dA*d[5mC]*dA*k[5mC]*k[5mC]*k[5mC]) [compound 799826] ?
stdout: middle group

stdin: Using the reported % Inhibition, which band applies to 799316 (antisense kA*kA*kA*d[5mC]*dA*d[5mC]*d[5mC]*dA*dA*dG*dA*dT*d[5mC]*k[5mC]*kA*kT) [compound 799316] ?
stdout: low group

stdin: Using the reported % Inhibition, which band applies to 799651 (antisense kA*kG*kG*dA*d[5mC]*dA*dG*d[5mC]*dA*dG*dA*d[5mC]*dA*kG*kG*k[5mC]) [compound 799651] ?
stdout: high group

stdin: Using the reported % Inhibition, which band applies to 799847 (kT*kT*k[5mC]*d[5mC]*dA*d[5mC]*dT*dA*dT*dT*d[5mC]*dT*dA*kT*kG*kA; antisense) [compound 799847] ?
stdout: middle group

stdin: Using the reported % Inhibition, which band applies to 799631 (k[5mC]*k[5mC]*kA*dA*dA*dT*d[5mC]*dA*d[5mC]*dA*dA*dA*dG*k[5mC]*kA*kG; antisense) [compound 799631] ?
stdout: high group

----------
Tested on: human SMAD7 mRNA
Assay text: Antisense inhibition of human SMAD7 mRNA expression in Hep3B cells by 5-10-5 MOE gapmers, single concentration, electroporation, RT-PCR (Example 1, Study 1 and 2)
Format: cell-based
Details: Study 2, electroporation with 15,000 nM antisense oligonucleotide, 5-10-5 MOE gapmers targeting SEQ ID NO: 1 and 2
Strand notation (5' to 3'): a small letter for the sugar, then the base; units joined by * are phosphorothioate-linked, units joined directly phosphodiester-linked; [ ] holds rarer units or linkages, { } end groups; capitals alone tell only the bases. e = 2'-O-(2-methoxyethyl) (MOE); [5mC] = 5-methylcytosine; d = 2'-deoxy (DNA)
Recorded % Inhibition values for a group of substances are listed next.
Report the value in % with no unit label.

As a guide, the following entries are already answered.
Substance	% Inhibition, %
771783 (antisense e[5mC]*e[5mC]*e[5mC]*eT*eT*d[5mC]*dA*dG*dA*dG*dA*dG*dT*d[5mC]*dA*e[5mC]*eT*eG*e[5mC]*eT) [compound 771783]	49
771742 (antisense eA*eG*eA*e[5mC]*eA*dG*dA*dT*d[5mC]*dT*d[5mC]*dT*dG*dA*dA*eG*eT*e[5mC]*eA*eG) [compound 771742]	44

Okay, next one:
stdin: What does the data say about its % Inhibition? Entry: 771378 (antisense eA*eT*e[5mC]*eT*eT*dT*dA*dA*dG*d[5mC]*dA*d[5mC]*dG*d[5mC]*dT*e[5mC]*eT*eA*eA*eA) [compound 771378]
stdout: 22

----------
Test system: human peripheral blood mononuclear cells (PBMCs)
Assay text: Human PBMC activation assay, cytokine levels (IL-10, IL-6, MCP-1, TNF-α) in supernatant after 24 hours (Example 9)
Details: human PBMC supernatant after 24 hours; 200 μM oligonucleotide
Measured endpoint: Levels of IL-6 (pg/mL)
Report the value in pg/mL with no unit label.

As a guide, the following entries are already answered.
> print(dat)
                                  substance                          target.or.system  measured.endpoint  readout.number
1  798781 (CGTAAGATTCACAGCA; 3-10-3 cEt gapmer, further chemistry not given here) [compound 798781]  human peripheral blood mononuclear cells (PBMCs)     Levels of IL-6            28.0
2  790615 (CCAATGAGAATGCTTC; 3-10-3 cEt gapmer, further chemistry not given here) [compound 790615]  human peripheral blood mononuclear cells (PBMCs)     Levels of IL-6            22.9
3  830121 (AGAATCAAGCCCTGGC; 3-10-3 cEt gapmer, further chemistry not given here) [compound 830121]  human peripheral blood mononuclear cells (PBMCs)     Levels of IL-6            35.2

Okay, next one:
stdin: What does the data say about its Levels of IL-6? Entry: 736697 (antisense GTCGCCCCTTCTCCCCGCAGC; chemistry not fully specified) [compound 736697]
stdout: 64.8
